// provenance: PubChem BioAssay AID1996

measurement.conditions: buffer; pH 7.4; 200.0 µM
measure.name: solubility kinetic

O=C(O)c1sccc1S(=O)(=O)N1CCOCC1	> 41.6 µg/mL
O=C(CNC(=O)c1ccc(Br)o1)NCC1COc2ccccc2O1 (centres undefined)	> 59.3 µg/mL
O=C(CSc1nnc2ccccn12)NC(=O)c1cccc([N+](=O)[O-])c1	> 53.6 µg/mL
CS(=O)(=O)c1cccc(S(=O)(=O)N2CCCCCC2)c1	> 47.6 µg/mL

====

measurement.conditions: buffer; pH 7.4; 200.0 µM
Some compounds, each annotated with its measured solubility kinetic.
measure.name: solubility kinetic

CN(CC(=O)O)S(=O)(=O)c1ccc2c(c1)NC(=O)CC(=O)N2	> 49.1 µg/mL
CC(C)c1ccc(OCC(=O)N2CCCN(C)CC2)cc1	> 43.6 µg/mL
NS(=O)(=O)c1ccc(CNC(=O)c2cnccn2)cc1	> 43.8 µg/mL
COc1ccc(-c2cc(C(=O)Nc3ccc(F)cc3F)no2)cc1	< 0.4 µg/mL
COc1nc(C)nc(NC(=O)NS(=O)(=O)c2ccccc2Cl)n1	> 53.7 µg/mL
Cn1cnc(S(=O)(=O)Nc2cc(-c3ccc(Cl)cc3)nn2C)c1	> 52.8 µg/mL

====

Some molecules, each annotated with its measured solubility kinetic.
measurement.conditions: buffer; pH 7.4; 200.0 µM
measure.name: solubility kinetic

Cc1ccc(N2C(=O)CC(N3CCSCC3)C2=O)c(C)c1 (stereo unspecified)	> 45.7 µg/mL
Br.CC(C)CC(N)C(=O)OCc1ccc([N+](=O)[O-])cc1 (stereo unspecified)	> 52.1 µg/mL
O=C1CC(c2cccs2)c2ccc3ccccc3c2N1 (stereo unspecified)	< 0.6 µg/mL
NS(=O)(=O)c1ccc(CNC(=O)C2CCCN2C(=O)c2cccs2)cc1 (stereo unspecified)	> 59 µg/mL
Cl.O=C(NCCN1CCCC1)c1ccc(Br)cc1	> 50 µg/mL
C/C(=N\OCC(=O)Nn1c(C)nc2ccccc2c1=O)c1cccs1	> 53.5 µg/mL

====

measurement.conditions: buffer; pH 7.4; 200.0 µM
Some compounds, each annotated with its measured solubility kinetic.
measure.name: solubility kinetic

Cc1oncc1C(=O)Nc1cccc(C#N)c1	> 34.1 µg/mL
Cn1c(SCC(=O)NC2CCCC2)nnc1-c1ccncc1	> 47.6 µg/mL
COc1ccc(NC(=O)N2CCCc3ccccc32)cc1OC	> 46.9 µg/mL

====

measurement.conditions: buffer; pH 7.4; 200.0 µM
measure.name: solubility kinetic

Cc1ccc(C(=O)N(C)CC(=O)Nc2cccc(C)c2C)o1	> 45.1 µg/mL
Nn1c(SCC(=O)NC2CCCCCC2)nnc1C(F)(F)F	> 50.6 µg/mL
CCC(=O)c1ccc(N2CCN(C(=O)c3ccc(F)cc3)CC2)c(F)c1	> 53.8 µg/mL
CC(=O)c1cccc(NC(=O)N2CCCCCC2)c1	> 39.1 µg/mL
Cn1ccs/c1=N\C(=O)Nc1cccc(C(F)(F)F)c1	> 45.2 µg/mL
O=C(O)CCn1c(Cc2ccccc2)nc2ccccc21	> 42 µg/mL
NC(=S)NC1CCS(=O)(=O)C1 (configuration not stated)	> 29.1 µg/mL

====

Some molecules, each annotated with its measured solubility kinetic.
measurement.conditions: buffer; pH 7.4; 200.0 µM
measure.name: solubility kinetic

COc1ccc(Nc2nc(-c3ccccc3O)nc3ccccc23)cc1	< 0.0002 mg/mL
CC1(C)CC(NC(=O)c2cc(Cl)ccc2Cl)CC(C)(C)N1	> 0.0494 mg/mL
Cn1ncc(C(=O)Nc2ccc(Cl)cc2)c1C(F)(F)F	> 0.0456 mg/mL
CNC(=O)CSc1nnc(-c2ccco2)n1-c1ccccc1	> 0.0472 mg/mL

====

Some compounds, each annotated with its measured solubility kinetic.
measurement.conditions: buffer; pH 7.4; 200.0 µM
measure.name: solubility kinetic (µg/mL)

Cc1cc(C)cc(NS(=O)(=O)Cc2ccccc2)c1	39.5
CCOc1ccc2oc(C(=O)NCC3CCCO3)c(C)c2c1 (centres undefined)	39.6
COc1ccc(CCNC(=O)CCNC(=O)c2ccco2)cc1OC	48.7
CSCc1ccc(C(=O)NC(C)c2ccc(-n3ccnc3)cc2)cc1 (centres undefined)	42.1
COc1ccc(CC(=O)NCCCSc2ccccc2)cc1OC	45.9
COc1ccc(C(=O)NCCNc2nc3c(C)cccc3cc2C#N)cc1	0.4
CCN(CC)P(c1n(C)cc[n+]1C)N(CC)CC.[I-]	46.9
CCc1ccc(C(=O)OCC(=O)NC2CCCC2)cc1	11.6
CC1(C)CC(=O)C=C(Nc2cccc(Cl)c2Cl)C1	37.3
COCc1cc(C)nc(SCc2ccccc2)c1C#N	3.4
O=C(CCCc1cccs1)Nc1nccs1	26.8
COc1ccccc1CNC(=O)COc1ccc(C)cc1	26.2
Cc1cccc(-n2c(O)c(C=Nc3cccc(O)c3)c3ccccc3c2=O)n1	0.8
O=[N+]([O-])/C=C1\C=CC=CN1Cc1ccc(Cl)cc1	31.7
CCCn1c(NC(=O)c2ccc([N+](=O)[O-])o2)nc2ccccc21	10.4
COc1cc2c(cc1OC)C(=S)NC1(CCCC1)C2	5.5
COc1ccc(-c2nc3ccccc3c(=O)n2CCc2ccc(O)cc2)cc1	12.4
COc1ccc(CNC(=S)NC2CCCCC2)cc1	38.4
CC(=O)Nc1ccc(C)c(NC(=S)Nc2ccc(F)cc2)c1	42.6

====

measurement.conditions: buffer; pH 7.4; 200.0 µM
Some compounds, each annotated with its measured solubility kinetic.
measure.name: solubility kinetic

Cc1cc(C(=O)NCCc2ccc(S(N)(=O)=O)cc2)c(C)o1	> 48.4 µg/mL
CCCC(=O)Nc1cc2c(cc1C(C)=O)OCCO2	> 39.5 µg/mL
CNCc1sccc1C.Cl	> 26.7 µg/mL
O=[N+]([O-])c1ccc(Nc2ccccc2)c2nonc12	> 38.4 µg/mL
CC1(C)CC(=O)C(CC(=O)N2CCC(Cc3ccccc3)CC2)C(=O)C1	> 53.3 µg/mL
Cc1cc(C(=O)Nc2nncs2)oc1C	> 33.5 µg/mL
CCCCNC(=S)N1CCN(C)CC1.O=C(O)C(=O)O	> 45.8 µg/mL
O=C(O)CSc1nc2c(c(C(F)(F)F)n1)CCCC2	> 43.8 µg/mL
Cc1ccc(N2C(=O)CSC2c2cccnc2)c(Cl)c1 (stereo not drawn)	> 45.7 µg/mL
COc1ccc(NC(=O)N2CCc3ccccc3C2)cc1OC	> 46.9 µg/mL
Cc1noc(C)c1C(=O)NC1=NCCS1	> 33.8 µg/mL
Cc1cccc(S(=O)(=O)c2c(C)cc(C)[nH]c2=O)c1	> 41.6 µg/mL
CC(C)c1ccccc1NC(=S)NCCCn1ccnc1	> 45.4 µg/mL

====

measurement.conditions: buffer; pH 7.4; 200.0 µM
measure.name: solubility kinetic

O=C(COc1ccc(Br)cc1)NC1CC1	> 40.5 µg/mL
COc1ccccc1CNc1nc(C)c(C(=O)N(C)C)s1	> 45.8 µg/mL
O=C1OCCC1Sc1nnc(-c2ccco2)n1-c1ccccc1 (configuration not stated)	> 49.1 µg/mL
CCn1cnc2scc(-c3ccc(OC)cc3)c2c1=O	> 43 µg/mL
O=C(NCc1ccccc1Cl)C1CCN(c2cnccn2)CC1	> 49.6 µg/mL
NC(=O)c1ccccc1NC(=O)CN1CCCCCC1	> 41.3 µg/mL
O=C(COC(=O)COc1ccccc1)NCc1ccco1	> 43.4 µg/mL
O=C(O)CC(CC(=O)Nc1ccc(-c2ccccc2)cc1)c1ccccc1 (configuration not stated)	> 53.9 µg/mL
COc1ccc(Nc2nnc(C)c(=O)[nH]2)c(OC)c1	> 39.3 µg/mL
Cc1cccc(OCC(=O)NCC(c2ccco2)N2CCCC2)c1 (configuration not stated)	> 49.3 µg/mL
CC(=O)Nc1ccc(OCC(=O)NC(C)c2ccc(F)cc2)cc1 (configuration not stated)	> 49.6 µg/mL
O=C(NCCCn1ccnc1)C1CCN(S(=O)(=O)c2cc([N+](=O)[O-])ccc2Cl)CC1	> 68.4 µg/mL
Cc1ccc(C)c(NC(=O)N2CCCCCC2)c1	> 37 µg/mL
CCCN1C2CCCC1CC(NC(=O)NC13CC4CC(CC(C4)C1)C3)C2 (configuration not stated)	> 53.9 µg/mL
CC(=O)c1cccc(-n2c(CCC(=O)O)ccc2-c2ccc(C)cc2)c1	> 52.1 µg/mL
O=C(CCNS(=O)(=O)c1ccccc1)Nc1ccccc1	> 45.7 µg/mL
COc1cc2c(cc1OC)C(c1ccccc1OC(C)C)CC(=O)N2 (configuration not stated)	< 0.7 µg/mL

====

measurement.conditions: buffer; pH 7.4; 200.0 µM
Label Satisfied for high-side solubility kinetic (at or above 30 µg/mL) and Not satisfied for low-side solubility kinetic (below it).

CCOc1ccc(CNCCc2ccc3c(c2)OCO3)cc1	Satisfied
Cc1cccc(CC(=O)N2CCOCC2)c1	Satisfied
Cc1cc(Br)ccc1OCCN1CCCC1.O=C(O)C(=O)O	Satisfied
CCOCCCNC(=O)c1oc2ccc3c(c2c1C)C(O)CC(C)(C)O3 (stereo not given)	Satisfied
COc1ccc(/C=C(\C#N)C(=O)N2COCC2(C)C)cc1	Satisfied
CCNc1nc(NC(C)C)nc(N(C#N)CC(=O)OC)n1	Satisfied
O=C1C2CCCN2C(c2ccco2)N1c1ccc(F)cc1 (stereo not given)	Satisfied
Nc1nc(-c2ccc(NC(=O)c3ccco3)cc2)cs1	Satisfied
CC(=O)c1ccc(NC(=O)COC(=O)Cn2cnc3ccccc32)cc1	Satisfied
Br.CNc1nc2ccccc2n1CC(=O)c1ccccc1	Satisfied
O=C(CN1CCN(c2ccccc2)CC1)Nc1ccc(F)cc1	Satisfied
N#Cc1ccc(S(=O)(=O)N2CCc3[nH]c4ccc(F)cc4c3C2)cc1	Not satisfied
COc1ccc(-n2c(SC)nc3sc4c(c3c2=O)CCN(C)C4)cc1	Satisfied
CCOc1ccc(C2NC(=O)Cc3cc(OC)c(OC)cc32)cc1 (stereo not given)	Satisfied
Cc1nc(CC(=O)Nc2nccs2)cs1	Satisfied
CC(C)(C)/C(O)=C/c1nc2ccccc2oc1=O	Satisfied
CC(C)Oc1ccc(N2CC(C(=O)NC3=NCCS3)CC2=O)cc1 (stereo not given)	Satisfied
O=C(COC(=O)c1c(Cl)cccc1Cl)NCc1cccs1	Satisfied
COc1ccc(CN2C(=O)C(C)Oc3ccccc32)cc1 (stereo not given)	Not satisfied
CCCCN(CC)CCNC(=O)c1cc2c(=O)[nH]c3ccccc3c2n1C	Satisfied
COc1ccc(-n2c(O)c(C=NCc3ccc4c(c3)OCO4)c(=O)[nH]c2=O)cc1	Not satisfied
Cc1cc(Cl)ccc1OC(C)C(=O)NCCCn1ccnc1 (stereo not given)	Satisfied
Cc1cc2oc(=O)c(CC(=O)NCCCO)c(C)c2c2occ(C(C)(C)C)c12	Not satisfied
Cc1ccc([N+](=O)[O-])cc1N=C1C(=O)Nc2ccccc21	Satisfied
FC(F)(F)c1cccnc1Oc1ccc(C2=NCCS2)cc1	Not satisfied
CC(C)(C)c1ccc(C(=O)Nc2ccc(NC(=O)C(=O)O)cc2)o1	Satisfied
CCOc1ccc(C(C)=O)cc1Cn1c(=O)oc2ccccc21	Not satisfied
O=C(O)c1ccccc1C(=O)NC1CCCCNC1=O (stereo not given)	Satisfied
CCCCc1nc(C(N)=O)c2[nH]c(=O)n(-c3ccc(OCC)cc3)c2n1	Not satisfied
O=C(NCc1ccco1)c1ccc(-c2ccc(Cl)cc2)o1	Not satisfied
